# Test system: MDA-MB-468
# protocol.summary: NCI 60 cell line five dose, Breast Cancer
# study.conditions: read-out: LC50, molar
result.type: CC50 (nM)
Write the value in nM as a bare number.

**Q:** # CC50 lookup, item C=C1C(=O)O[C@H]2[C@H]1CC/C(COC(=O)NCCCCCCCCNC(=O)OC/C1=C/CC[C@@]3(C)O[C@H]3[C@H]3OC(=O)C(=C)[C@@H]3CC1)=C\CC[C@@]1(C)O[C@@H]21
**A:** 1500

----------
# System: HCT-15
# protocol.summary: NCI 60 cell line five dose, Colon Cancer
# study.conditions: read-out: LC50
result.type: CC50
# number then unit; no other words

| chemical.structure | value.observed |
| --- | --- |
| C=C1C(=O)O[C@H]2[C@H]1CC/C(COC(=O)NCCCCCNC(=O)OC/C1=C/CC[C@@]3(C)O[C@H]3[C@H]3OC(=O)C(=C)[C@@H]3CC1)=C\CC[C@@]1(C)O[C@@H]21 | 49.8 µM |

**Q:** # CC50 lookup, item C=C1C(=O)O[C@H]2[C@H]1CC/C(COC(=O)NCCCCNC(=O)OC/C1=C/CC[C@@]3(C)O[C@H]3[C@H]3OC(=O)C(=C)[C@@H]3CC1)=C\CC[C@@]1(C)O[C@@H]21
**A:** 56.3 µM
